- assay target: T1, human recombinant IL-21 (expressed in E. coli as the mature peptide); residues 30-162 of SEQ ID NO: 1 with an … (human, UniProt Q9HBE4 30-162)
- T1 construct: The SPR and cell assays say only IL-21 / hIL-21 / recombinant human IL-21; also called hIL-21; human IL-21
- T1 sequence (Q9HBE4 other isoform, or with tags, fused parts or gaps): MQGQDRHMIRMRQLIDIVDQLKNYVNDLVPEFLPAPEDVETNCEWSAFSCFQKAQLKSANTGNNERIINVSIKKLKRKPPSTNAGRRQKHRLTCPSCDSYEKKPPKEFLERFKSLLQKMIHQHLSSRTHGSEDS
- assay details: crystal structure, Areaimol (CCP4)
measurement label: Avr Area (average areas excluded in pairwise interactions) (Å^2)
Numeric answer only, unit Å^2 assumed.

# binder, test result
measured = [
    ("Fab35 (Fab fragment of mAb14/mAb37) (Fab, V domains shown, also called anti-IL-21 Fab35) VH: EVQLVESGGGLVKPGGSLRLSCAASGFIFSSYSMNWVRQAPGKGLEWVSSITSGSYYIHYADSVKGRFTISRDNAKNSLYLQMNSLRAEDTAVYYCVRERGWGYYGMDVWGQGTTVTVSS VL: AIQLTQSPSSLSASVGDRVTITCRASQDIDSALAWYQQKPGKAPKILIHDASSLESGVPSRFSGSGSGTDFTLTISSLQPEDFATYYCQQFNSYPYTFGQGTKLEIKR", 1060),
]

Now examine the next entry.
Avr Area (average areas excluded in pairwise interactions) reported for this binder Fab56 (Fab35 with H: D62E mutation; Fab fragment of mAb61) (Fab, V domains shown, also called aIL-21 Fab56) VH: EVQLVESGGGLVKPGGSLRLSCAASGFIFSSYSMNWVRQAPGKGLEWVSSITSGSYYIHYAESVKGRFTISRDNAKNSLYLQMNSLRAEDTAVYYCVRERGWGYYGMDVWGQGTTVTVSS VL: AIQLTQSPSSLSASVGDRVTITCRASQDIDSALAWYQQKPGKAPKILIHDASSLESGVPSRFSGSGSGTDFTLTISSLQPEDFATYYCQQFNSYPYTFGQGTKLEIKR : 1070
